Test system: HepG2
Experiment: Antiproliferative activity against human HepG2 cells assessed as reduction in cell viability measured after 48 hrs by MTT assay
Type: functional, cell-based
Conditions: HepG2, 48 h
pIC50: −log10 of the molar value.
Quick rule: pIC50 of at least 5 means 1, below that means -1.

                                smiles_input  assigned_label
 0  COc1ccc2nc3cc(Cl)ccc3c(Nc3cc(OC)c(OC)c(OC)c3)c2c1               1
 1         COc1ccc(Nc2c3ccccc3nc3ccccc23)cc1               1
 2         COc1cc(Nc2cccc3ncccc23)cc(OC)c1OC               1
 3           COc1ccc(Nc2ccnc3cc(Cl)ccc23)cc1               1
 4     CCCCN(c1ccc(OC)cc1)c1ccnc2cc(Cl)ccc12               1
 5    CCCCN(c1ccnc(C)c1)c1cc(OC)c(OC)c(OC)c1              -1
 6      CCCCN(c1ccc(F)c(Cl)c1)c1cccc2ncccc12              -1
 7      COc1cc(N(C)c2cccc3ncccc23)cc(OC)c1OC               1
 8     COc1cc(Nc2ccnc3cc(Cl)ccc23)cc(OC)c1OC               1
 9        COc1ccc(N(C)c2ccnc3cc(Cl)ccc23)cc1               1
10  CCCCN(c1cc(OC)c(OC)c(OC)c1)c1c2ccc(Cl)cc2nc2ccc(OC)cc12               1
11                  COc1ccc(Nc2ccnc(C)n2)cc1               1

====

Test system: HepG2
Experiment: Antiproliferative activity against human HepG2 cells assessed as reduction in cell viability measured after 48 hrs by MTT assay
Type: functional, cell-based
Conditions: HepG2, 48 h
measurement_type: IC50 (µM)

>>> df
                               smiles_input  measurement_target  unit_of_measurement  value
0            COc1cc(Nc2ccnc(C)c2)cc(OC)c1OC               HepG2                   µM   11.4
1  COc1cc(N(C)c2ccnc3cc(Cl)ccc23)cc(OC)c1OC               HepG2                   µM   11.4
2               COc1ccc(N(C)c2ccnc(C)c2)cc1               HepG2                   µM   15.5
3      COc1ccc(N(C)c2c3ccccc3nc3ccccc23)cc1               HepG2                   µM   4.18
4         CN(c1ccc(F)c(Cl)c1)c1cccc2ncccc12               HepG2                   µM   20.1
5  COc1cc(N(C)c2c3ccccc3nc3ccccc23)cc(OC)c1OC               HepG2                   µM   1.81

====

Tested on: HepG2
Assay: Antiproliferative activity against human HepG2 cells assessed as reduction in cell viability measured after 48 hrs by MTT assay
Assay type: functional, cell-based
Conditions: HepG2, 48 h
pIC50: −log10 of the molar value.
This section presents compounds with their documented pIC50 values.
measurement_type: pIC50

                               smiles_input  measurement_target  measurement_type  value
0                 c1ccc(Nc2cccc3ncccc23)cc1               HepG2             pIC50   4.57
1                  COc1ccc(Nc2ccnc(C)c2)cc1               HepG2             pIC50   4.83
2           CN(c1ccc(C#N)cc1)c1cccc2ncccc12               HepG2             pIC50   4.54
3   COc1cc(Nc2c3ccccc3nc3ccccc23)cc(OC)c1OC               HepG2             pIC50   5.35
4  CCCCN(c1ccc(OC)cc1)c1c2ccc(Cl)cc2nc2ccc(OC)cc12               HepG2             pIC50   5.09
5   CCCCN(c1ccc(OC)cc1)c1c2ccccc2nc2ccccc12               HepG2             pIC50   5.46
6            COc1cc(Nc2ccnc(C)n2)cc(OC)c1OC               HepG2             pIC50   5.09
7  CCCCN(c1cc(OC)c(OC)c(OC)c1)c1ccnc2cc(Cl)ccc12               HepG2             pIC50   4.81

====

System: HepG2
Assay: Antiproliferative activity against human HepG2 cells assessed as reduction in cell viability measured after 48 hrs by MTT assay
Assay type: functional, cell-based
Conditions: HepG2, 48 h
measurement_type: IC50

                                smiles_input    value
 0         CCCCN(c1ccc(OC)cc1)c1cccc2ncccc12  1.37 µM
 1  CCCCN(c1cc(OC)c(OC)c(OC)c1)c1cccc2ncccc12     7 µM
 2            CCCCN(c1ccc(OC)cc1)c1ccnc(C)c1  18.7 µM
 3            CCCCN(c1ccc(OC)cc1)c1ccnc(C)n1  6.71 µM
 4  COc1ccc(N(C)c2c3ccc(Cl)cc3nc3ccc(OC)cc23)cc1  7.24 µM
 5  CCCCN(c1cc(OC)c(OC)c(OC)c1)c1c2ccccc2nc2ccccc12  3.55 µM
 6               COc1ccc(Nc2cccc3ncccc23)cc1  3.79 µM
 7         COc1cc(N(C)c2ccnc(C)c2)cc(OC)c1OC  18.6 µM
 8        CCCCN(c1ccc(C#N)cc1)c1cccc2ncccc12  30.1 µM
 9         COc1cc(N(C)c2ccnc(C)n2)cc(OC)c1OC  12.7 µM
10             CCCCN(c1ccccc1)c1cccc2ncccc12  22.1 µM
11  COc1ccc(Nc2c3ccc(Cl)cc3nc3ccc(OC)cc23)cc1  3.19 µM

====

System: HepG2
Assay: Antiproliferative activity against human HepG2 cells assessed as reduction in cell viability measured after 48 hrs by MTT assay
Format: functional, cell-based
Conditions: HepG2, 48 h
pIC50: −log10 of the molar value.
measurement_type: pIC50

>>> df
                               smiles_input  measurement_type  value
0                CN(c1ccccc1)c1cccc2ncccc12             pIC50   4.80
1              N#Cc1ccc(Nc2cccc3ncccc23)cc1             pIC50   4.43
2  COc1ccc2nc3cc(Cl)ccc3c(N(C)c3cc(OC)c(OC)c(OC)c3)c2c1             pIC50   5.55
3               COc1ccc(N(C)c2ccnc(C)n2)cc1             pIC50   5.86
4    CCCCN(c1cc(OC)c(OC)c(OC)c1)c1ccnc(C)n1             pIC50   4.78
5              Fc1ccc(Nc2cccc3ncccc23)cc1Cl             pIC50   4.49
6            COc1ccc(N(C)c2cccc3ncccc23)cc1             pIC50   6.58
